Listed here: items and their measured pIC50.
measured_on: PI3K-α (Homo sapiens, UniProt P42336)
Sequence (P42336 whole entry, species assumed): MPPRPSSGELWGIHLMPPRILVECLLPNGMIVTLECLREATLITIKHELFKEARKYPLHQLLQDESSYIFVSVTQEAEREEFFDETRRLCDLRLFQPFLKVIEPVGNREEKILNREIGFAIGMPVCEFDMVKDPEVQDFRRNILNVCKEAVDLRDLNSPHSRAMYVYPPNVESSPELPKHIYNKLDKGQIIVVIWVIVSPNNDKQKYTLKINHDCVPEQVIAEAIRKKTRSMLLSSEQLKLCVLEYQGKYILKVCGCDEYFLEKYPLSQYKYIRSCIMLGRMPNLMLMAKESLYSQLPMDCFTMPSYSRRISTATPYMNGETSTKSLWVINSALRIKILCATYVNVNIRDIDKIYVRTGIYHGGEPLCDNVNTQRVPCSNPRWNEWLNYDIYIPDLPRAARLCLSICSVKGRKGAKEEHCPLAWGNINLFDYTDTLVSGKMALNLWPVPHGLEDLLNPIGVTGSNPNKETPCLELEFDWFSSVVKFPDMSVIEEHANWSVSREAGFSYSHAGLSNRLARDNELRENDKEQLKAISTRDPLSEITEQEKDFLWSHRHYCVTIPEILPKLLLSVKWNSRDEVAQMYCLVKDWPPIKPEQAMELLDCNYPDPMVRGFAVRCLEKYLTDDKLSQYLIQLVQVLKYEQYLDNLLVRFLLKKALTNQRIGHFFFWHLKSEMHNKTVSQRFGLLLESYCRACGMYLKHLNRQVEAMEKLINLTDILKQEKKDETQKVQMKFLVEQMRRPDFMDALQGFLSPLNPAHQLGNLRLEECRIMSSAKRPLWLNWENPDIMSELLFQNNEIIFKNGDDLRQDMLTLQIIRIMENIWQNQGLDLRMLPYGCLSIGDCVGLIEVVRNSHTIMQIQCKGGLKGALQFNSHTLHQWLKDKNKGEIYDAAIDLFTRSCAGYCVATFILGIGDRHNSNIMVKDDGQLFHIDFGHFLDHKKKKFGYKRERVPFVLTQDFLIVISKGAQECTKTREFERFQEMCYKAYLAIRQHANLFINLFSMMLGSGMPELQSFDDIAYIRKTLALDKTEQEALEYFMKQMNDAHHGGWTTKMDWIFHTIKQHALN
Sequence (P27986 whole entry partner, species assumed): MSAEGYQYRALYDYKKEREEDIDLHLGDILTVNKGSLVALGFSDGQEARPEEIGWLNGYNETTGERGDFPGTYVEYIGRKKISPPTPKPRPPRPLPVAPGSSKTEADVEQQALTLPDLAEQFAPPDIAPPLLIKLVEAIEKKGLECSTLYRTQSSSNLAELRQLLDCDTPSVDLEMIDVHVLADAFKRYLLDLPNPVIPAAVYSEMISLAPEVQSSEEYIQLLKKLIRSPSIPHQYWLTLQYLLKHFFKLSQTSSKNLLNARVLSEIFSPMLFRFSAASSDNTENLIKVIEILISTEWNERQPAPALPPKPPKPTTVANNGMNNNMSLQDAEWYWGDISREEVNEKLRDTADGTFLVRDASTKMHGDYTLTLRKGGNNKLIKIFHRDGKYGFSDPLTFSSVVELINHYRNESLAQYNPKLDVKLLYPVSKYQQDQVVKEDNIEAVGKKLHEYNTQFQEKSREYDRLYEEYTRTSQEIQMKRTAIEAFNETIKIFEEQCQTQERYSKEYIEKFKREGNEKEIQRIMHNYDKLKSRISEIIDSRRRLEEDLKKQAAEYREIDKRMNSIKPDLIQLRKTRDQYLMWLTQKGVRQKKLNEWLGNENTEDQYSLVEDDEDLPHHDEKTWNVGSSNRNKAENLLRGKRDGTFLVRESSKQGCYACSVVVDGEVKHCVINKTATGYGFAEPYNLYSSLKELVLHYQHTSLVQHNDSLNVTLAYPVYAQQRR
assay_overview: PI3K-alpha fluorescence polarization assay
cond: read-out: IC50 PI3Kα
pIC50: −log10 of the molar value.
measured_endpoint: pIC50

item_smiles | endpoint_value
CNC(=O)c1ccc(NC(=O)Nc2ccc(-c3nc(N4CCOCC4)nc(N4C5CCC4COC5)n3)cc2)cc1 | 8.35
CC(C)c1nc(-c2ccc(NC(=O)Nc3ccc(-c4ccncc4)cc3)cc2)nc(N2CCOCC2)n1 | 5.44
CN1CCN(C(=O)c2ccc(NC(=O)Nc3ccc(-c4nc(N5CCOCC5)nc(N5C6CCC5COC6)n4)cc3)cc2)CC1 | 8.57
Nc1nc2cc(-c3nc(N4CCOCC4)nc(N4C5CCC4COC5)n3)ccc2[nH]1 | 6.81
CN1CCN(c2ccc(Nc3nc(-c4ccc(NC(=O)Nc5ccc(C(N)=O)cc5)cc4)nc(N4CC5CCC(C4)O5)n3)cc2)CC1 | 7.81
O=C(Nc1ccncc1)Nc1ccc(-c2nc(CCCO)nc(N3CCOCC3)n2)cc1 | 8.00
CC(C)Nc1nc(-c2ccc(NC(=O)Nc3ccc(OCCN4CCCC4)cc3)cc2)nc(N2C3CCC2COC3)n1 | 5.37
CCCCc1nc(-c2ccc(NC(=O)Nc3ccc(CN4CCN(C)CC4)cc3)cc2)nc(N2CCOCC2)n1 | 7.20
CN(C)CCNC(=O)c1ccc(NC(=O)Nc2ccc(-c3nc(C4=CCOCC4)nc(N4CCOCC4)n3)cc2)cc1 | 9.15
CCCc1nc(-c2ccc(NC(=O)Nc3ccc(N4CCN(C)CC4)cc3)cc2)nc(N2CCOCC2)n1 | 8.05
CN1CCN(Cc2ccc(NC(=O)Nc3ccc(-c4nc(N5CCOCC5)nc(N5C6CCC5COC6)n4)cc3)cc2)CC1 | 7.68
CCCCc1nc(-c2ccc(NC(=O)Nc3ccc(C(=O)N(C)CCN(C)C)cc3)cc2)nc(N2CCOCC2)n1 | 8.70
CCc1nc(-c2ccc(NC(=O)Nc3ccc(C(=O)N4CCC(N(C)C)CC4)cc3)cc2)nc(N2CCOCC2)n1 | 9.00

* * *

measured_on: PI3K-γ (Homo sapiens, UniProt P48736)
Sequence (P48736 whole entry, species assumed): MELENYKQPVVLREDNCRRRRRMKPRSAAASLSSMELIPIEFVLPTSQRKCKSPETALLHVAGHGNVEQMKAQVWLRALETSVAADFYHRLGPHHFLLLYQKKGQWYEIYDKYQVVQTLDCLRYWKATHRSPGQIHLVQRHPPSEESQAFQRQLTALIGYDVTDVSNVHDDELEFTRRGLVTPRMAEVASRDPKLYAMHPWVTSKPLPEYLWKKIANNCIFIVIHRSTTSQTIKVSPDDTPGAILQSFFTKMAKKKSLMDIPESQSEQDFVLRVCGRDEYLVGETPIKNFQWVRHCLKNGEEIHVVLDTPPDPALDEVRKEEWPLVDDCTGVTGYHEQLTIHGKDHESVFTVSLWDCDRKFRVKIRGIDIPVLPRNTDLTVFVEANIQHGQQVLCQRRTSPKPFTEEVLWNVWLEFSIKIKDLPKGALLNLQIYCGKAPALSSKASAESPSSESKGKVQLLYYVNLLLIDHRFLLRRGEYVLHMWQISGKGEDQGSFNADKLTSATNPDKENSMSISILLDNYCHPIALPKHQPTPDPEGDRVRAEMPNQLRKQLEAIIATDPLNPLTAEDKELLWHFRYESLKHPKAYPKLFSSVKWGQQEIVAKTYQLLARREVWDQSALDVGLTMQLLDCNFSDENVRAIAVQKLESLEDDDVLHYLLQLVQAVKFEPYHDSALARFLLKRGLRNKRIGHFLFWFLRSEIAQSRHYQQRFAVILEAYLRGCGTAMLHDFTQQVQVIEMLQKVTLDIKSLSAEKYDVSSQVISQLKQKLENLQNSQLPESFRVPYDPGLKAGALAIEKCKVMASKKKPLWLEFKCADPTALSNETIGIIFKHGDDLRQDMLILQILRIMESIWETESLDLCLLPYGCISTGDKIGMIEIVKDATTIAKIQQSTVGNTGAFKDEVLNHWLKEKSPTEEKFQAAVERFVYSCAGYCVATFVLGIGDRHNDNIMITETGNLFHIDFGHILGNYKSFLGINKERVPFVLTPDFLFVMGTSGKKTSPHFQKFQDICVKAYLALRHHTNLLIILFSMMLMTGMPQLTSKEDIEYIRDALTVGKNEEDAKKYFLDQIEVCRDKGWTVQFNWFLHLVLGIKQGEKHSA
assay_overview: PI3K-gamma fluorescence polarization assay
cond: read-out: IC50 PI3Kγ
Listed here: items and their measured IC50.
measured_endpoint: IC50 (nM)

molecule | measured_endpoint | endpoint_value
NS(=O)(=O)N1CCC(Oc2nc(-c3ccc(NC(=O)Nc4ccncc4)cc3)nc(N3CCOCC3)n2)CC1 | IC50 | 29
CCCCc1nc(-c2ccc(NC(=O)Nc3ccc(C(=O)N4CCC(N(C)C)CC4)cc3)cc2)nc(N2CCOCC2)n1 | IC50 | 23
O=C(Nc1ccc(-c2nc(OCC3CCCNC3)nc(N3CC4CCC(C3)O4)n2)cc1)Nc1cccnc1 (stereo not shown) | IC50 | 8000
CC1CN(C(=O)c2ccc(NC(=O)Nc3ccc(-c4nc(N5CCOCC5)nc(N5C6CCC5COC6)n4)cc3)cc2)CC(C)N1 (stereo not shown) | IC50 | 23.5

* * *

Tested on: human prostate PC3-mm2 tumor cell line
assay_overview: In vitro cell culture growth assay (MTS), PC3-mm2
Type: cell-based
cond: Homo sapiens, PC3MM2, 72 h, MTS cell growth assay, three days after drug treatment; read-out: IC50 PC3-mm2
pIC50: −log10 of the molar value.
measured_endpoint: pIC50

item_smiles | measured_endpoint | endpoint_value
CN1CCN(c2ccc(NC(=O)Nc3ccc(-c4nc(N5CCOCC5)nc(N5C6CCC5COC6)n4)cc3)cc2)CC1 | pIC50 | 7.40
O=C(Nc1ccncc1)Nc1ccc(-c2nc(N3CCOCC3)nc(N3C[C@@H]4C[C@H]3CO4)n2)cc1 | pIC50 | 7.00
COc1ccc(NC(=O)Nc2ccc(-c3nc(N4CCOCC4)nc(N4CCOCC4)n3)cc2)cc1 | pIC50 | 6.79
CC(C)c1nc(-c2ccc(NC(=O)Nc3ccc(C(=O)Nc4ccncc4)cc3)cc2)nc(N2CCOCC2)n1 | pIC50 | 6.96
